# Target: ScHse1
# Method Notes: SPOT peptide array binding signal intensity (averaged, normalized) (arbitrary units (background-subtracted, floor 0; scale differs between SH3 domains)); higher = stronger binding of the SH3 domain to the peptide
Property Name: SPOT peptide array binding signal intensity
Number, no unit, nothing else.

Guide cases for SPOT peptide array binding signal intensity, answers given:
{"columns": ["Binder", "Quantitative Readout"],
 "data": [
  ["DHPKGPPPPPPPDEK", 2],
  ["LKPPIGRPPKFPKSP", 19.8],
  ["HKVLRPFLLRRLKKD", 2170],
  ["FPPKRKPLLRPQRSD", 1190],
  ["GAGERPRLVPRPINV", 4.5],
  ["VPVAPPPPPASLGQS", 4],
  ["YVRRRPRVRLEPLLS", 2260],
  ["TSFKGRPKPPKTLKH", 542]
]}

Entry QLLNPNRRAPRRPLS : reported SPOT peptide array binding signal intensity = ?
779

What would you report for KNPRRQLQIPRQQPS ?
527

Next: ATKSASPTLPTRRSR
172

Try the binder ISRRRLPVIMHRLKM
1390
